Below is a list of entries, each paired with its recorded CC50 at 120 h value.
assay info: Cytotoxicity assay, MTS
Assay type: cell-based
details: human; HFF-1, 120-hour incubation, maximum tested 64 µM

Answered examples (2):
In [3]: df
Out[3]:
                                   compound  data_value
0  CSC12CC3=CC=CC(OC(C)=O)C3N1C(=O)C1(SC)CC3=CC=CC(OC(C)=O)C3N1C2=O (stereo not drawn) [Compound 4, haematocin]     > 64 µM
1  CCCCc1ccc(C(=O)O)nc1 [Compound 5, fusaric acid]     > 64 µM

Attention now shifts to the item below.
In: Report CC50 at 120 h for CCCCc1ccc(C(=O)[O][Mg][O]C(=O)c2ccc(CCCC)cn2)nc1 [Compound 2, magnesium complex of fusaric acid] please.
Out: > 64 µM
